target_entity: recombinant mouse LPLA2 (PLA2G15) (Mus musculus)
Construct: purchased Proteos Inc. (Kalamazoo, MI)
Sequence (Q8VEB4 34-412): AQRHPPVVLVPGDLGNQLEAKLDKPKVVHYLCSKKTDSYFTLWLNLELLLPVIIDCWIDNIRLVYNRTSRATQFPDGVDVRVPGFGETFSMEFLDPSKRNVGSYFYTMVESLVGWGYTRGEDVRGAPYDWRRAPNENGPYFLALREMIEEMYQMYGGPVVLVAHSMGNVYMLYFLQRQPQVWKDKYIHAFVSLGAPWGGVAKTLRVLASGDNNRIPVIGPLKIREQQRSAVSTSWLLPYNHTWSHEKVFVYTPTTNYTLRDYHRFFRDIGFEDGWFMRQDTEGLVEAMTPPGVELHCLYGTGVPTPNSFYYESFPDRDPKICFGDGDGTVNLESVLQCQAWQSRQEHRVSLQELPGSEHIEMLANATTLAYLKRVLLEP
method_notes: Transacylase activity of LPLA2 (1-O-acyl-N-acetylsphingosine synthase, cell-free liposome assay)
Type: biochemical
measurement_parameters: LPLA2 dependent 1-O-acyl N-acetylsphingosine synthase activity; read-out: LPLA2 IC50
measure_name: log10 of IC50 (log10 of the value in µM)
Answers are given as log10 of IC50 in µM.

Guide cases for log10 of IC50, answers given:
CC[C@H](NC(=O)c1c(C)c(-c2ccccc2)nc2ccccc12)c1ccccc1 [sb222200]    1.17
C[C@]12CC[C@@H]3c4ccc(O)cc4C[C@@H](CCCCCCCCC[S+]([O-])CCCC(F)(F)C(F)(F)F)[C@H]3[C@@H]1CC[C@@H]2O (some centres unmarked) [Fulvestrant]    1.79
Cc1ccc2c(Cl)cc(Cl)c(O)c2n1    3.07

Request: Need log10 of IC50, item CC(C)Cn1cnc2c(N)nc3ccccc3c21 [Imiquimod]
Result: 2.20

Request: Need log10 of IC50, item CCC(=O)O[C@@H](O[P@](=O)(CCCCc1ccccc1)CC(=O)N1C[C@H](C2CCCCC2)C[C@H]1C(=O)O)C(C)C [Fosinopril]
Result: -0.74
